Sourced from the supplement of paper PMC10724198

test system: Saccharomyces cerevisiae; assay: protein stability index of tFT-peptide fusion (C-terminal peptide) (PSI (0-1 scale)); higher = more stable (slower turnover); conditions: genetic background: das1 deletion; temperature: 30 C
measured parameter: protein stability index
Give bare numbers.

# sequence, protein stability index
rows = [
    ("IASQNSLGWNEV [MSB2 C-terminal 12 aa]", 0.697),
    ("IELIQNMNKESF [YOR131C C-terminal 12 aa]", 0.696),
    ("LVEILDCEIRTL [MIC60 C-terminal 12 aa]", 0.683),
    ("LASALKELQDAA [YHR112C C-terminal 12 aa]", 0.691),
    ("RATLNSVNSFLM [RIT1 C-terminal 12 aa]", 0.681),
    ("IVLPENIPLLYK [YJL195C C-terminal 12 aa]", 0.694),
    ("STTADSTTNSAN [YLR146W-A C-terminal 12 aa]", 0.696),
    ("ACHMAKPLKLPT [YHR032C-A C-terminal 12 aa]", 0.679),
]

I have 7 sequences here; please give me protein stability index for each one.
1. DLTKKPKKITFD [DBP3 C-terminal 12 aa]
2. ISGGTFGFRSEI [HBT1 C-terminal 12 aa]
3. GVEKYWGILSSD [SCW10 C-terminal 12 aa]
4. IVKAVKEVLSIE [PDB1 C-terminal 12 aa]
5. FQERIKNKNILK [CWC27 C-terminal 12 aa]
6. REWFDIELNFSK [PMT4 C-terminal 12 aa]
7. TALLENDANLIS [ERV15 C-terminal 12 aa]

1. 0.692
2. 0.696
3. 0.712
4. 0.683
5. 0.739
6. 0.747
7. 0.703

I have 4 sequences here; please give me protein stability index for each one.
1. IFQEAIDKTVEI [YML082W C-terminal 12 aa]
2. PKGDIEASIAEE [MPH3 C-terminal 12 aa]
3. SILRIDDIAFSR [CCT4 C-terminal 12 aa]
4. SVFLLNITYLLD [YOR314W C-terminal 12 aa]

0.708
0.688
0.739
0.236

I have 5 sequences here; please give me protein stability index for each one.
1. PEKWSASLKKFK [THI6 C-terminal 12 aa]
2. EIRKIMMEEQPR [CHM7 C-terminal 12 aa]
3. RSNEEMYSWSRN [SPO74 C-terminal 12 aa]
4. IQESRFNFYLIT [RKM5 C-terminal 12 aa]
5. AITLAWLAHALT [YHL037C C-terminal 12 aa]

1. 0.731
2. 0.686
3. 0.698
4. 0.683
5. 0.437

So what's the measured protein stability index for this one? FKCVHTPCNVYI [YER078W-A C-terminal 12 aa]
0.679

###

system: Saccharomyces cerevisiae; assay: protein stability index of tFT-peptide fusion (C-terminal peptide) (PSI (0-1 scale)); higher = more stable (slower turnover); conditions: genetic background: das1 deletion; temperature: 37 C
Would you kindly list protein stability index for each of these sequences?
One number for each entry.

# sequence, meas value
measured = [
    ("FHSALIAIAAYV", 0.24),
    ("RRQLVLVLSWVI", 0.507),
    ("LVGYSVFVLFFS", 0.498),
]

I have 5 sequences here; please give me protein stability index for each one.
1. SRRRRLVSKFLA
2. KKKEILVYIIQE
3. EKKKKKRKNKIK
4. SGLVHVLILGAC
5. SRWMWFDWLRRA

0.729
0.578
0.722
0.553
0.747

###

test system: Saccharomyces cerevisiae; assay: protein stability index of tFT-peptide fusion (C-terminal peptide) (PSI (0-1 scale)); higher = more stable (slower turnover); settings: genetic background: wild type; temperature: 37 C
Classification field: enter t for protein stability index values not below 0.4, f for values below it.

# sequence, qualitative label
data = [
    ("FFFSFSFPFLSF", "t"),
    ("FIRLFLVSFFIS", "f"),
    ("PWGVGLACLFLL", "f"),
    ("VQLFCLRREMII", "t"),
    ("CPALTFCLLLSS", "t"),
    ("ARFCFRIFSFAS", "f"),
]

Quick check, protein stability index >= 0.4? VLVVVAFVALPR
t

Quick check, protein stability index >= 0.4? GCLFASWPLAVC
f

Quick check, protein stability index >= 0.4? CPFLTLLISLDV
t

Quick check, protein stability index >= 0.4? GVARALFLWKAV
t

Quick check, protein stability index >= 0.4? WLCVFVFGIFFV
f

Quick check, protein stability index >= 0.4? SYVFCYICGVQS
t

Quick check, protein stability index >= 0.4? CVIVCVLVWGRA
f

Quick check, protein stability index >= 0.4? RLLFFVFLSSRF
t

Quick check, protein stability index >= 0.4? MALAVRVVFCGA
t

Quick check, protein stability index >= 0.4? RRRNQAAHLYSH
f

Quick check, protein stability index >= 0.4? VFLRCRSLSMRV
t

Quick check, protein stability index >= 0.4? VKVIILYKIIEV
t

Quick check, protein stability index >= 0.4? LSTFFIFLRILR
t

Quick check, protein stability index >= 0.4? SGRKNQRILGLY
t

Quick check, protein stability index >= 0.4? AFPVGFLVGLVV
t

Quick check, protein stability index >= 0.4? CVCVVVCWRCGF
t

Quick check, protein stability index >= 0.4? SMFFLFFFFFFF
t

Quick check, protein stability index >= 0.4? GSLVLSCLMSRA
t

Quick check, protein stability index >= 0.4? SLRYRFLSFFFL
f

Quick check, protein stability index >= 0.4? SFYAGLVVGGVG
t

###

tested on: Saccharomyces cerevisiae; assay: protein stability index of tFT-peptide fusion (C-terminal peptide) (PSI (0-1 scale)); higher = more stable (slower turnover); conditions: genetic background: doa10 deletion; temperature: 30 C
Classification field: enter label 1 for protein stability index values not below 0.4, label 0 for values below it.

// known answers, use as guide
# sequence, tested on, qualitative label
records = [
    ("LPWLLLISFSYR", "Saccharomyces cerevisiae", "label 0"),
    ("LGPLGWLVLLLV", "Saccharomyces cerevisiae", "label 0"),
    ("CLLWVVWSLLWV", "Saccharomyces cerevisiae", "label 0"),
]

Now take the following sequence into account.
Quick check, protein stability index >= 0.4? SLIVLRSIAVLD
label 0

###

tested on: Saccharomyces cerevisiae; assay: protein stability index of tFT-peptide fusion (C-terminal peptide) (PSI (0-1 scale)); higher = more stable (slower turnover); conditions: genetic background: wild type; temperature: 30 C
measured parameter: protein stability index
Give bare numbers.

// solved cases for protein stability index follow
# sequence, tested on, protein stability index
measured = [
    ("HTPPMVGMLCLG", "Saccharomyces cerevisiae", 0.6),
    ("WRGRCGPVLGFC", "Saccharomyces cerevisiae", 0.659),
    ("CGRFVGEGGGKV", "Saccharomyces cerevisiae", 0.777),
    ("VVKKDTHVKRKT", "Saccharomyces cerevisiae", 0.636),
    ("KKKKKKTKNEIK", "Saccharomyces cerevisiae", 0.643),
    ("RWSVSLAVTVLL", "Saccharomyces cerevisiae", 0.503),
    ("CMLPWPILLCPF", "Saccharomyces cerevisiae", 0.46),
    ("PQPLFLPSPLSR", "Saccharomyces cerevisiae", 0.702),
]

I have 7 sequences here; please give me protein stability index for each one.
1. IGFNVEIRKGMG
2. FFVLGRGVCLGA
3. PPLLTPPSTLFS
4. SAPCSFCPPPPG
5. ETCFSFVCSVQC
6. AFHFFLIPHSFF
7. LPPPLPPATPPP

[0.605, 0.649, 0.661, 0.667, 0.398, 0.639, 0.675]

I have 7 sequences here; please give me protein stability index for each one.
1. AFFRPGISRPYG
2. VPPPRLPQPLFP
3. WHGLLEWLAWRT
4. IGRVFGMENIKM
5. KTRQSNAPRRTF
6. ALPPSPLLPTLP
7. DSRFMLYIHSSR

1: 0.71; 2: 0.717; 3: 0.736; 4: 0.669; 5: 0.707; 6: 0.702; 7: 0.713

I have 5 sequences here; please give me protein stability index for each one.
1. SKKSKTQSNKNQ
2. SHIAIEKLHSKN
3. VGKGALHCLPDL
4. PLPAPRHNALTT
5. PSAGPVVLPTPP

0.683
0.709
0.713
0.614
0.704

I have 8 sequences here; please give me protein stability index for each one.
1. PRRPATTSIPTT
2. AGRSAHMEVRHE
3. LLSVFPLHPGSP
4. IKRKKKKKKKRD
5. PHPPPPHPPPPP
6. HLPPMLSCTLRS
7. HGSVGRIAHVLS
8. VGVSGEGFSWVG

[0.672, 0.712, 0.73, 0.656, 0.644, 0.657, 0.667, 0.675]
